B1: Chromodomain-helicase-DNA-binding protein 4, residues 444 to 496; numbered along this chain, Q14839 (parent)
chain: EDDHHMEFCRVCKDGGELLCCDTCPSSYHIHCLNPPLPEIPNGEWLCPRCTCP

# Variants of: B1
# ASSAY_PROCEDURE: abundance fitness (aPCA) (normalised: wild type 0, dead -1); higher = more abundant; growth selection in yeast, the domain comes from the species named
# EXPERIMENTAL_CONTEXT: Homo sapiens
Please note: 1 applies when abundance fitness is -0.2 or greater, and 0 applies otherwise.

| SEQUENCE_CHANGE | LABEL_VALUE |
| --- | --- |
| C20K | 1 |
| D2R | 1 |
| M6D | 1 |
| R10I | 1 |
| M6A | 1 |
| L37V | 1 |
| Y28H | 0 |
| I30Q | 1 |
| L18C | 0 |
| C32S | 0 |
| E1W | 0 |
| G15F | 0 |
| L19M | 1 |
| H29C | 0 |
| E1Y | 1 |
| P25N | 0 |
| L46I | 1 |
| E39H | 1 |
| V11W | 0 |
| C12P | 0 |
| T23H | 1 |
